Cited source for all entries: patent US20030199523A1

# tested.on: rat brain N-type calcium channel (α1B+α2δ+β1b) (Rattus norvegicus, UniProt Q02294)
# Construct: expressed in transfected cells
# Sequence (Q02294 whole entry): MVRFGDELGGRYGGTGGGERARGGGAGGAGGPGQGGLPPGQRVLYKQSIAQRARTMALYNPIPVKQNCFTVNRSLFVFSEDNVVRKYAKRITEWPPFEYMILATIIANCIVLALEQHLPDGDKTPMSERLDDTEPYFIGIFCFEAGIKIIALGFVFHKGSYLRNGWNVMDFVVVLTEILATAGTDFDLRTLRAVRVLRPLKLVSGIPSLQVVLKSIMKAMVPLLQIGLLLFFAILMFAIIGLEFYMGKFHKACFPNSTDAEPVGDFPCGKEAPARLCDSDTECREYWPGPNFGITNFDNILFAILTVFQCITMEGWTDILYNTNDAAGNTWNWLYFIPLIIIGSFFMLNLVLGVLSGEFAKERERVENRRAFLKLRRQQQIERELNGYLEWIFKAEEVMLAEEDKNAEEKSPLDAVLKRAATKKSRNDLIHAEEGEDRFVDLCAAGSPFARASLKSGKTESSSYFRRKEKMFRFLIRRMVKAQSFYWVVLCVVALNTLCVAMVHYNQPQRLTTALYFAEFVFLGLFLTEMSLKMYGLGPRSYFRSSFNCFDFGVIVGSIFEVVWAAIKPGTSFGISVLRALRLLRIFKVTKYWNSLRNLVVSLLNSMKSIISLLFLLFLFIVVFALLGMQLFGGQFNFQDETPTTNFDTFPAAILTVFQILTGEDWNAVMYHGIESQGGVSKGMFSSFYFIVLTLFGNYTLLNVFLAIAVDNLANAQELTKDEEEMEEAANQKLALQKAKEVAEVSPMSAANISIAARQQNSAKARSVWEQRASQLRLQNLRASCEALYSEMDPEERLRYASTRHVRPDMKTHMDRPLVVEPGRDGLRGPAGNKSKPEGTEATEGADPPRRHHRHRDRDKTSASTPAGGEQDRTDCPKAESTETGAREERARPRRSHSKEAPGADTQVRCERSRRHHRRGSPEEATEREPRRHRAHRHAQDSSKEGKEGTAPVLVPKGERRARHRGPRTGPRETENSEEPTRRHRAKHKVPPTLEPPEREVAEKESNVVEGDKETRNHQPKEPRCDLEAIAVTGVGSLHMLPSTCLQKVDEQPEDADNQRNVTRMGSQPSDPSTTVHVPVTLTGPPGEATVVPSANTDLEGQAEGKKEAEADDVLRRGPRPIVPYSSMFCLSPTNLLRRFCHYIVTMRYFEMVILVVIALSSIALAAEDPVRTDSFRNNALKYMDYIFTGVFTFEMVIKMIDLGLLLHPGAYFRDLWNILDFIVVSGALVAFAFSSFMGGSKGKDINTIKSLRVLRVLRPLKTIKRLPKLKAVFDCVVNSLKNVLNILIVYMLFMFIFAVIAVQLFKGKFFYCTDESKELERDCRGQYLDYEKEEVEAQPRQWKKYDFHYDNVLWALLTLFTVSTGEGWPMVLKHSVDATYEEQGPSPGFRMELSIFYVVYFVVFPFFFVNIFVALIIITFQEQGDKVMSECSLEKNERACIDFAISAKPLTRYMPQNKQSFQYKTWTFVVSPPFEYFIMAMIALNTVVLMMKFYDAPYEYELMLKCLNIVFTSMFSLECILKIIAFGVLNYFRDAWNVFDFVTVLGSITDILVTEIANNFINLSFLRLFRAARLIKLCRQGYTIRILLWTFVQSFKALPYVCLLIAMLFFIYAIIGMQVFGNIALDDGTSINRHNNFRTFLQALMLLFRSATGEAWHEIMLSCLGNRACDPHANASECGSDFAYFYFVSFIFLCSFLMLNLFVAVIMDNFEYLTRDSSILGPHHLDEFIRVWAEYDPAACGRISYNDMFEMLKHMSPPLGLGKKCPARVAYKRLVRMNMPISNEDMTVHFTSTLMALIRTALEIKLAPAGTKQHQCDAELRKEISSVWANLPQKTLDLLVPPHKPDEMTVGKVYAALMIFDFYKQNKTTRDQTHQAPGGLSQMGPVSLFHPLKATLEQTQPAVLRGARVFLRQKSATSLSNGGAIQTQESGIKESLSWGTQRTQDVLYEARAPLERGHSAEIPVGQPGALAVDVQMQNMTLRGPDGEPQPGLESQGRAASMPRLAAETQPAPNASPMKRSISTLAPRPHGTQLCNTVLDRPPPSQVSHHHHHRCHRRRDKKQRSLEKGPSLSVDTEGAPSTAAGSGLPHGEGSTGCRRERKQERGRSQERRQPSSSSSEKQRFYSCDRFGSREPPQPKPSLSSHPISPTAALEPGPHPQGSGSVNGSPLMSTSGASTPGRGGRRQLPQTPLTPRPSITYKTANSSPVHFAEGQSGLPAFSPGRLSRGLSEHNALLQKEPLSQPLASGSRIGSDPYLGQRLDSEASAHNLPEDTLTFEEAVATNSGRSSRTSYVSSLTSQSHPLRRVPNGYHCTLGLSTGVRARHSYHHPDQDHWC
# assay.name: Whole cell patch clamp block of N-type calcium channels expressed in HEK 293 cells
# Type: cell-based
# details: step to +20 mV from holding potential −80 mV, 0.1 Hz, 5 mM barium external solution
measured.parameter: IC50 (µM)
Express your answer in µM, writing the number without its unit.

O=C(COC(c1ccc(Cl)cc1)c1ccc(Cl)cc1)Nc1ncc([N+](=O)[O-])s1 [NT051] = 0.13

Asked: Field: IC50 (rat brain N-type calcium channel (α1B+α2δ+β1b) (Rattus norvegicus, UniProt Q02294)). Entry: O=C(CCOc1ccc(Cl)cc1Cl)Nc1nnc(C(F)(F)F)s1 [NT044]
Given back: 0.14
